Recorded values, source patent US20240190854A1.

# assayedTarget: HCN2 (Homo sapiens (Human), UniProt Q9UL51)
# Sequence (Q9UL51 whole entry): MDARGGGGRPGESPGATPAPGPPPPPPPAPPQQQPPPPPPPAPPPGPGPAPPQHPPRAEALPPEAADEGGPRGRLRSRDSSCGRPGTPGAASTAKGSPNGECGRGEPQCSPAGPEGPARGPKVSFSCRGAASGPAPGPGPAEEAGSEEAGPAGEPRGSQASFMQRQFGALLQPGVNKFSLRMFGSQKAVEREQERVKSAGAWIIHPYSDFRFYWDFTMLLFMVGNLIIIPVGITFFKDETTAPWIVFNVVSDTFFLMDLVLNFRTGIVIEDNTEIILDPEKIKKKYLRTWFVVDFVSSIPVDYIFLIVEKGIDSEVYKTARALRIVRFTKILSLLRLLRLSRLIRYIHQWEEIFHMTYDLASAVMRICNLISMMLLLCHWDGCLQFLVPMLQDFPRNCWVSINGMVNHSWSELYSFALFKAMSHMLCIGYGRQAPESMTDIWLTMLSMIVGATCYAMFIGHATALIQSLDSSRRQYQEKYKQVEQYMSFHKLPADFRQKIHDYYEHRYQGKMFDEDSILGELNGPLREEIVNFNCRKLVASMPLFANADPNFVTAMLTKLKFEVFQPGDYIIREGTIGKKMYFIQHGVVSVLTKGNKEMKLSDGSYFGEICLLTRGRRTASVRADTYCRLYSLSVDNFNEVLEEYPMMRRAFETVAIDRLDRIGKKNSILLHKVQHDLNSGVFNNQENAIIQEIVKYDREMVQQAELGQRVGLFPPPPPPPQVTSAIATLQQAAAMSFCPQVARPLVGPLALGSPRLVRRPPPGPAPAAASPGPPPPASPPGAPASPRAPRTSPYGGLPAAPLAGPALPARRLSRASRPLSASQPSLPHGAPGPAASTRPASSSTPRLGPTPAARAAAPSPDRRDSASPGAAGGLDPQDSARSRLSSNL
# assayOverview: HCN2 current assay using PatchXpress 7000A
# Type: cell-based
# testParameters: PatchXpress protocol; read-out: PX HCN2 IC50
# Procedure: Example 126A, Using PatchXpress 7000A Solutions for recording HCN currents were: The membrane voltage was then stepped back to −30 mV for a further 8 seconds. The peak inward current measured at the end of the pulse to −110 mV (HCN1 and HCN2) or −130 mV (HCN4) was measured and any leak current subtracted to calculate the HCN current. The HCN current amplitude was measured after each control or compound addition and normalized to the control amplitude (Control A). […]
pIC50: −log10 of the molar value. Counter-ions that a name gives are not always drawn.
# key: entry, value: pIC50
assayMetric: pIC50

| molecule | assayedTarget | assayMetric | dataValue |
| --- | --- | --- | --- |
| N[C@@H](Cc1ccc(F)cn1)c1ccccc1-c1noc2ccccc12 [Example 69, hydrochloride] | HCN2 (Homo sapiens (Human), UniProt Q9UL51) | pIC50 | 6.30 |
| N#Cc1ccc2c(-c3ccccc3[C@@H](N)Cc3ccccn3)noc2c1 | HCN2 (Homo sapiens (Human), UniProt Q9UL51) | pIC50 | 5.37 |
| N[C@@H](Cc1ccccn1)c1ccccc1-c1noc2cc(C3CC3)ccc12 | HCN2 (Homo sapiens (Human), UniProt Q9UL51) | pIC50 | 4.78 |
| N[C@@H](Cc1ccccn1)c1ccccc1-c1noc2cccc(Br)c12 [Example 43, hydrochloride] | HCN2 (Homo sapiens (Human), UniProt Q9UL51) | pIC50 | 4.80 |
| COC(=O)Nc1cccc(C[C@H](N)c2ccccc2-c2noc3ccccc23)n1 [Example 124, hydrochloride] | HCN2 (Homo sapiens (Human), UniProt Q9UL51) | pIC50 | 5.68 |
| N[C@@H](Cc1cccc(-c2cn[nH]c2)n1)c1ccccc1-c1noc2ccccc12 [Example 91, hydrochloride] | HCN2 (Homo sapiens (Human), UniProt Q9UL51) | pIC50 | 6.00 |
| Cn1cc(-c2cccc(C[C@H](N)c3ccccc3-c3noc4ccccc34)n2)cn1 [Example 90, hydrochloride] | HCN2 (Homo sapiens (Human), UniProt Q9UL51) | pIC50 | 5.54 |
| N[C@@H](Cc1cccc(C(=O)N2CCOCC2)n1)c1ccccc1-c1noc2ccccc12 [Example 106, hydrochloride] | HCN2 (Homo sapiens (Human), UniProt Q9UL51) | pIC50 | 5.07 |
